# Lookup of reported TGI keyed by entry
System: COLO 205 colon
PROTOCOL DETAILS: NCI tumour cell line growth inhibition, 48 h
Where a SMILES comes first, the peptide text is derived from it. The star is where a group is joined. Cbz = O=C(OCc1ccccc1)*

MOLECULE	TGI
N=C(N)SCc1ccc([N+](=O)[O-])cc1[N+](=O)[O-]	7.96 µM
NC(=O)C1CCCN1C(=O)N(CCCl)N=O (stereo not given)	> 100 µM
CCOC(=O)CNC(=O)C(C)NC(=O)C(NC(=O)OCc1ccccc1)C(C)C (stereo not drawn) (Cbz-Val-Ala-Gly-OEt; configuration not given here)	> 100 µM
Cc1ccc(S(=O)(=O)N2CCCSCCN(S(=O)(=O)c3ccc(C)cc3)CCCSCC2)cc1	> 100 µM
CC1(C)CC(=O)c2c(ccc(C(=O)C[C@@H](N)CO)c2N)O1	> 37.3 µM
CC(=O)OC1[C@@H](OC(C)=O)CN(OCc2ccccc2)C[C@H]1OC(C)=O (stereo not given in full)	> 100 µM
CCN1C(=O)N(CC)C2C1NN=c1s/c(=C\c3cccc([N+](=O)[O-])c3)c(=O)n12 (stereo not given)	0.538 µM
CN(C)c1ccc(/C=N/NC(=O)c2cccc3ccccc23)c(Cl)c1	> 100 µM
O=C(Nc1cccc(-n2cc(-c3ccncc3)c(-c3ccc(O)c(Cl)c3)n2)c1)c1ccc(Cl)c(Cl)c1	> 100 µM
CCN(CC)c1ccc(/C=C/C=C(/C#N)C(N)=S)cc1	> 100 µM

###

System: UO-31 renal
PROTOCOL DETAILS: NCI tumour cell line growth inhibition, 48 h

SMILES RECORD	UNIT TAG	CENSORING SIGN	TGI
C[C@]12CCc3sc(-c4cccc(F)c4)nc3C1=CC[C@@H]1[C@@H]2CC[C@]2(C)C(=O)CC[C@@H]12	µM	=	2.98
N#CCCN(CCC#N)c1ccc(C(N=Nc2ccc(Cl)cc2)=Nc2ccc(Cl)cc2)cc1	µM	=	29.4
Oc1ccccc1C=Nc1ccccc1N=Cc1ccccc1O.[Cu+2]	µM	=	15.6
Cn1c2ccccc2c2nnc(NNCc3ccccn3)nc21	µM	=	1.98
C=CCN1C[C@@H](C)N([C@@H](c2ccc(C(=O)N(CC)CC)cc2)c2cccc(OC)c2)C[C@@H]1C	µM	>	100

###

Test system: OVCAR-5 ovarian
PROTOCOL DETAILS: NCI tumour cell line growth inhibition, 48 h; in the data active = GI50 below about 0.43 µM; inactive = the rest
Outcomes: active, inactive

COMPOUND	TARGET SYSTEM	CATEGORY LABEL
CC(=O)c1cccc(NC(=O)c2ccc(NC3=C(Cl)C(=O)N(Cc4ccccc4)C3=O)cc2)c1	OVCAR-5 ovarian	inactive
COc1ccc2[nH]c(O)c(/C=c3/ccc4c(c3)N=C(c3ccc(F)cc3)N=4)c2c1	OVCAR-5 ovarian	inactive
COc1ccc(C#CC2=C(c3cc(OC)c(OC)c(OC)c3)C(=O)OC2)cc1	OVCAR-5 ovarian	inactive
Oc1ccccc1C=Nc1ccccc1N=Cc1ccccc1O.[Cu+2]	OVCAR-5 ovarian	inactive
COc1cc(NC(C)CCCN)c2ncccc2c1Sc1ccc(Cl)cc1 (centres undefined)	OVCAR-5 ovarian	inactive
Cc1cc(S(N)(=O)=O)c(S/C(=N\Nc2ccc([N+](=O)[O-])cc2)c2ccc3ccccc3c2)cc1Cl	OVCAR-5 ovarian	inactive
Oc1c(CNCCNCc2cc(Cl)cc(Cc3ccccc3)c2O)cc(Cl)cc1Cc1ccccc1	OVCAR-5 ovarian	inactive
Cc1cc2c(cc1C)[n+](Cc1ccc3ccccc3n1)cn2Cc1ccc2ccccc2n1	OVCAR-5 ovarian	inactive
COc1ccc(Oc2cc(NCCC(F)(F)F)c3ncc(-c4ccc(C(=O)NC5CC5)c(C)c4)n3n2)c(F)c1F	OVCAR-5 ovarian	inactive
CC1(C)N=C(N)N=C(N)N1c1ccc(Cl)c(Cl)c1	OVCAR-5 ovarian	active
CCN1C(=O)N(CC)C2C1NN=c1s/c(=C\c3cccc([N+](=O)[O-])c3)c(=O)n12 (centres undefined)	OVCAR-5 ovarian	active
CC(=O)c1ccc2c(c1)N(CCCN(C)C)c1ccccc1S2	OVCAR-5 ovarian	inactive
CCN(CC)CCCNc1[nH]ncc2c(C)c3nc4ccccc4c3cc12	OVCAR-5 ovarian	inactive
COc1ccc(-c2nnc(Nc3nc(O)c(C4=c5cc(F)ccc5=NC4=O)s3)o2)cc1	OVCAR-5 ovarian	inactive

###

Tested on: EKVX NSCLC
PROTOCOL DETAILS: NCI tumour cell line growth inhibition, 48 h
MEASURED QUANTITY: log10 TGI (log10 of the value in µM)

COMPOUND	log10 TGI
Cc1cc2c(cc1C)[n+](Cc1ccc3ccccc3n1)cn2Cc1ccc2ccccc2n1	1.05
CCCCCCCCCCCCCCNCC(OCC)OCC	1.54
Nc1c2c(nc3ccccc13)CCCc1ccccc1-2	1.59
Cc1ccc(S(=O)(=O)SCc2ccccc2)cc1	1.99
CCCCS(=O)CC(CO)NC(=O)/C=C/c1c(C)[nH]c(=O)[nH]c1=O (centres undefined)	1.63
CN(C)c1ccc(C(=C2C=CC(=[N+](C)C)C=C2)c2ccccc2Cl)cc1	0.16
COc1ccc(C(=O)OC2C(OC3C(O)COC(O[C@H]4C[C@H]5[C@@H]6CC=C7C[C@@H](O)CC[C@]7(C)[C@H]6CC[C@]5(C)[C@H]4[C@H](C)C(=O)CCC(C)C)C3OC(C)=O)OCC(O)C2O)cc1 (some centres undefined)	0.38
Cc1cn2c(/C=N/N=C(N)N)c(-c3ccsc3)nc2s1	1.44
O=C(CC1C(=O)Nc2ccccc2S1(=O)=O)Nc1cccc(Cl)c1 (centres undefined)	1.63
O=[N+]([O-])c1ccc(COc2cccc3cccnc23)cc1	1.85

###

# Lookup of reported GI50 keyed by entry
System: SK-MEL-28 melanoma
PROTOCOL DETAILS: NCI tumour cell line growth inhibition, 48 h

SMILES RECORD	GI50
Cc1cc(S(N)(=O)=O)c(S/C(=N\Nc2ccc([N+](=O)[O-])cc2)c2ccc3ccccc3c2)cc1Cl	35.1 µM
O=Nc1c(O)c2ccccc2c2ccccc12	1.68 µM
C[C@]12CC[C@@H]3c4ccc(O)cc4CC[C@H]3[C@@H]1CC[C@@H]2NS(=O)(=O)c1ccc2ccccc2c1	2.31 µM
COc1ccc2nccc(/C=C/c3ccnc4ccc(OC)cc34)c2c1	24.6 µM
CCOC(=O)c1nc2cc(C(F)(F)F)ccc2[n+]([O-])c1C	> 100 µM

###

System: SNB-19 CNS
PROTOCOL DETAILS: NCI tumour cell line growth inhibition, 48 h
# Lookup of reported TGI keyed by entry

COMPOUND	TGI
CCCC#CCOC(=O)c1cc([N+](=O)[O-])cc([N+](=O)[O-])c1	> 100 µM
Cc1nc2cccc([N+](=O)[O-])c2n1CCCN(C)C	> 100 µM
Cc1nc2ccccc2c(=O)n1/N=C/c1ccc(N(C)C)cc1	> 100 µM
Cc1ccc([N+](=O)[O-])cc1S(=O)(=O)Nc1ccc(C2=NN(S(=O)(=O)c3cc([N+](=O)[O-])ccc3C)C(c3ccco3)C2)cc1 (centres undefined)	> 100 µM
C[n+]1c(/C=C/c2ccc(/C=N/NC(=O)c3ccc(C(=O)N/N=C/c4ccc(/C=C/c5cn6ccccc6[n+]5C)cc4)cc3)cc2)cn2ccccc21	> 100 µM
Clc1cccc2c1OCC1C(c3ccccc3)=NN(c3ccccc3)C21 (centres undefined)	> 100 µM
COC(=O)C1=COc2c(n(C)c3ccccc23)-c2ccccc21	> 100 µM
Clc1ccc(N2CCC(N3CCCC3)CC2)cc1-c1nc2ccccc2[nH]1	> 100 µM
O=C1CSC(C(N=Nc2ccc(Cl)cc2)c2nc3ccccc3[nH]2)=N1 (centres undefined)	> 100 µM

###

Tested on: OVCAR-4 ovarian
PROTOCOL DETAILS: NCI tumour cell line growth inhibition, 48 h; in the data active = GI50 below about 0.43 µM; inactive = the rest
Outcomes: active, inactive

COMPOUND	CATEGORY LABEL
CC12CCC(O)CC1=CCC1C2CCC2(C)C(c3cccnc3)=CCC12 (stereo not drawn)	inactive
CCN(Cc1cccc(F)c1F)c1ccc(CO)c(Cl)c1	active
CCCCN1CCN(c2ccc3nc(-c4ccc5nc(-c6ccc(OCC)c(OCC)c6)[nH]c5c4)[nH]c3c2)CC1	inactive
Cc1cc2c(cc1C)[n+](Cc1ccc3ccccc3n1)cn2Cc1ccc2ccccc2n1	inactive
COc1cc(C2C3=C(COC3=O)Nc3cc4c(cc32)OCO4)cc2c1OCO2 (stereo not drawn)	active
N=C(N)SCc1ccc([N+](=O)[O-])cc1[N+](=O)[O-]	inactive
CCCCCSC1C2C(=O)C(Br)=CC13CCNc1c(O)c4c5c(c13)=[N+]2CCC=5C=N4 (stereo not drawn)	active
CC(=O)/C(=C\c1c(-c2ccccc2)[nH]c2ccccc12)S(=O)(=O)c1ccccc1	inactive
CC(OC(=O)N(N(CCCl)S(C)(=O)=O)S(C)(=O)=O)c1ccc([N+](=O)[O-])cc1 (stereo not drawn)	inactive
C[C@]12CC[C@@H]3c4ccc(O)cc4CC[C@H]3[C@@H]1CC[C@@H]2NS(=O)(=O)c1ccc2ccccc2c1	inactive
CNC(=O)c1cc2c(Oc3ccc(NC(=S)NC(=O)Cc4ccccc4)cc3F)ccnc2cc1OC	inactive
Clc1ccc(N2CCC(N3CCCC3)CC2)cc1-c1nc2ccccc2[nH]1	inactive
C[C@]12CCc3sc(-c4cccc(F)c4)nc3C1=CC[C@@H]1[C@@H]2CC[C@]2(C)C(=O)CC[C@@H]12	inactive
